Cited source for all entries: PubChem BioAssay (NCI)

- Tested on: MALME-3M melanoma
- experimentNotes: NCI-60 one-dose screen, 48 h
- conditionInfo: 10 µM unless noted
- Method: Cells are grown in 96 well plates and exposed to the test compound for 48 hours. Compounds are tested at a single concentration, which is 10^-5 M for most compounds. The reported endpoint is percent growth (GI% or GIPRCNT), where numbers from 0 - 100% represent growth inhibition, and numbers from -100% - 0 represent cell death. For example, a value of 40 represents 60% growth inhibition. A value of 0 means no net growth occurred over the course of the experiment. […]
Compounds without any hit were thinned out: in the full panel of roughly 83,000, 20% have a hit. Calls of active or inactive are those of the source. Rule for the calls: active = growth percent below 10; inactive = the rest.
Select the matching outcome among active, inactive

// return assay outcome for CC[C@@H]1C(=O)N(C)c2cnc(Nc3ccc(C(=O)NC4CCN(C)CC4)cc3OC)nc2N1C1CCCC1 active

Others:
// return assay outcome for CCN1/C(=C/C=C/c2n(-c3ccccc3)c3ccc(-c4nc5ccccc5s4)cc3[n+]2CC)N(c2ccccc2)c2ccc(-c3nc4ccccc4s3)cc21 active

// return assay outcome for Cc1cc2c3c(cccc3c1)C(=O)c1ccccc1-2 inactive

// return assay outcome for Cc1ccc(-n2nc(C(C)(C)C)cc2NC(=O)NCc2cc(F)ccc2Oc2ccc3c(cnn3CCO)c2)cc1 active

* * *

- Test system: ACHN renal
- experimentNotes: NCI-60 one-dose screen, 48 h
- conditionInfo: 10 µM unless noted
- Experimental: Growth inhibition of the ACHN human tumor cell line is measured as a screen for anti-cancer activity. Cells are grown in 96 well plates and exposed to the test compound for 48 hours. Compounds are tested at a single concentration, which is 10^-5 M for most compounds. The reported endpoint is percent growth (GI% or GIPRCNT), where numbers from 0 - 100% represent growth inhibition, and numbers from -100% - 0 represent cell death. For example, a value of 40 represents 60% growth inhibition. […]
Compounds without any hit were thinned out: in the full panel of roughly 83,000, 20% have a hit. Active and inactive are the calls of the source. How the source made its calls: active means growth percent below 10; inactive means the rest.
Select the matching outcome among Yes (active), No (inactive)

// return assay outcome for CN1C/C=C\CCOc2cccc(c2)-c2ccnc(n2)Nc2cccc(c2)C1 Yes

Others:
// return assay outcome for COc1ccc(F)c(F)c1C(=O)c1cnc(NC2CCN(S(C)(=O)=O)CC2)nc1N Yes

// return assay outcome for CN(C)CCn1c(=O)c2c3cc4c(cc3n(CCN(C)C)c2c2ccc(Cl)cc21)OCO4 No

// return assay outcome for COC(=O)[C@@H](OC)[C@@H]1Cc2cc3cc(OC4CC(OC5CC(O)C(O)C(C)O5)C(O)C(C)O4)c(C)c(O)c3c(O)c2C(=O)[C@H]1OC1CC(OC2CC(OC3CC(C)(O)C(O)C(C)O3)C(O)C(C)O2)C(O)C(C)O1 (some centres undefined) Yes

* * *

- Test system: K-562 leukemia
- experimentNotes: NCI-60 one-dose screen, 48 h
- conditionInfo: 10 µM unless noted
- Protocol: Cells are grown in 96 well plates and exposed to the test compound for 48 hours. Compounds are tested at a single concentration, which is 10^-5 M for most compounds. The reported endpoint is percent growth (GI% or GIPRCNT), where numbers from 0 - 100% represent growth inhibition, and numbers from -100% - 0 represent cell death. For example, a value of 40 represents 60% growth inhibition. A value of 0 means no net growth occurred over the course of the experiment. […]
Compounds without any hit were thinned out: in the full panel of roughly 83,000, 20% have a hit. Activity calls are given as the source filed them. The calls were made as follows: active = growth percent below 10; inactive = the rest.
Select the matching outcome among y for active, n for inactive

// return assay outcome for CCn1cc(-c2ccnc3[nH]c(-c4cccc(CN(C)C)c4)cc23)c(-c2ccc(NC(=O)N(C)C)cc2)n1 y

// return assay outcome for COc1cc(Nc2ncc3c(n2)-c2ccc(Cl)cc2C(c2c(F)cccc2OC)=NC3)ccc1C(=O)O n

// return assay outcome for O=C(NC1CCNCC1)c1[nH]ncc1NC(=O)c1c(Cl)cccc1Cl y

// return assay outcome for COc1cc2c(cc1OCCCN1Cc3ccc(OCCCCC(=O)N4CCC(CCN5CCCC5)CC4)cc3C1)N=C(N)C21CCCC1 y

// return assay outcome for CC(C)c1ccc(/C=N/Nc2nc3ccccc3s2)cc1 n

* * *

- System: A498 renal
- experimentNotes: NCI-60 one-dose screen, 48 h (100 = growth as untreated, 0 = no growth, -100 = all killed)
- conditionInfo: 10 µM unless noted
About 83,000 compounds went through this panel and 20% of them were active in at least one assay; those are over-represented in the sample as a whole.
resultType: growth (%)
Give the number; % is assumed, so skip it.

Tell me the measured growth of CC(C)(C)C(=O)OCOP(=O)(OCOC(=O)C(C)(C)C)C1CCCN(OC(=O)c2ccccc2)C1=O (stereo not given) , please. 10.9

Tell me the measured growth of COc1cc2c3c(c1)nc(C)n3CCC2 , please. 100

Tell me the measured growth of CC/C(=C(/c1ccc(Cl)cc1)c1ccc(OCCN2CCCCC2)cc1)c1ccc(Cl)cc1 , please. 94

Tell me the measured growth of Brc1ccc([I+]c2ccc(Br)cc2)cc1 , please. 71.6

Tell me the measured growth of Ic1ccccc1-c1ccccc1 , please. 89.8

Tell me the measured growth of Cc1cn(-c2cc(NC(=O)c3ccc(C)c(Nc4nccc(-c5cccnc5)n4)c3)cc(C(F)(F)F)c2)cn1 , please. 82.2

Note: attention shifts to another entry.
Tell me the measured growth of Nc1ncnc2c1c(-c1cccc(OCc3ccccc3)c1)cn2C1CC(CN2CCC2)C1 (stereo not given) , please. -1.47

* * *

growth values, listed per item
- Tested on: CCRF-CEM leukemia
- experimentNotes: NCI-60 one-dose screen, 48 h (100 = growth as untreated, 0 = no growth, -100 = all killed)
- conditionInfo: 10 µM unless noted
About 83,000 compounds went through this panel and 20% of them were active in at least one assay; those are over-represented in the sample as a whole.
Give the number; % is assumed, so skip it.

Tell me the measured growth of Cc1cc(Nc2nc(N[C@@H](C)c3ncc(F)cn3)ncc2Cl)n[nH]1 , please. 76.6

Tell me the measured growth of O=C(Nc1nc2cccc(-c3ccc(CN4CCS(=O)(=O)CC4)cc3)n2n1)C1CC1 , please. 30.9

Tell me the measured growth of C[C@H]1Oc2cc(cnc2N)-c2c(nn(C)c2C#N)CN(C)C(=O)c2ccc(F)cc21 , please. 93.8

Tell me the measured growth of C=C1C(=O)O[C@H]2[C@H]1CC/C(C=Nc1c(N)cc(C(F)(F)F)cc1C(F)(F)F)=C\CC[C@@]1(C)O[C@@H]21 , please. 4.15

Tell me the measured growth of COc1cc2c(Nc3ccc(Br)cc3F)ncnc2cc1OCC1CCN(C)CC1 , please. 14.5

Tell me the measured growth of C[C@@H]1COC(Nc2ccc3ncnc(Nc4ccc(OCc5nccs5)c(Cl)c4)c3c2)=N1 , please. 24.7

Tell me the measured growth of COc1cc2ncnc3c2cc1OCCCCCN(C)Cc1ccc(Br)cc1N3 , please. 51.8

Tell me the measured growth of COc1ccc(C2CC(=O)c3c(O)c(OC)c(OC)c(OC)c3O2)c(O)c1 (centres undefined) , please. 25.5

Others:
Tell me the measured growth of O=C1CC(c2cccc(F)c2)c2c(n[nH]c2-c2ccc(Cl)cc2)N1 (centres undefined) , please. 101

* * *

- Tested on: HT29 colon
- experimentNotes: NCI-60 one-dose screen, 48 h (100 = growth as untreated, 0 = no growth, -100 = all killed)
- conditionInfo: 10 µM unless noted
About 83,000 compounds went through this panel and 20% of them were active in at least one assay; those are over-represented in the sample as a whole.
growth values, listed per item
Give the number; % is assumed, so skip it.

Tell me the measured growth of O=C(NOC[C@H](O)CO)c1ccc(F)c(F)c1Nc1ccc(I)cc1F , please. 7.15

Tell me the measured growth of COc1cc2nccc(Oc3ccc(NC(=O)C4(C(=O)Nc5ccc(F)cc5)CC4)cc3)c2cc1OC , please. -19.1

Tell me the measured growth of CN1CCN(c2ccc(OC(F)(F)F)c(Nc3ncc4c(n3)-c3c(c(C(N)=O)nn3CCO)CC4)c2)CC1 , please. 10.3

Tell me the measured growth of COc1ccc(Br)cc1NC(=O)Nc1cccc2c1ccn2Cc1ccnc(N)c1 , please. -40.6

Tell me the measured growth of O=C(CNc1nc(-c2ccc(Cl)cc2)cs1)Nc1ccc(-c2nc3ccccc3s2)cc1 , please. 108

Tell me the measured growth of N#CC(C#N)=NO , please. 91.7

Tell me the measured growth of CC(C)c1ccc(/C=N/Nc2nc3ccccc3s2)cc1 , please. 78.8

Tell me the measured growth of O=C(NOCCO)c1cc(CN2OCCCC2=O)c(F)c(F)c1Nc1ccc(I)cc1F , please. 8.15

Tell me the measured growth of CN1C/C=C\CCOc2cccc(c2)-c2ccnc(n2)Nc2cccc(c2)C1 , please. -16.8

Note: attention shifts to another entry.
Tell me the measured growth of CN(C)C[C@@H]1CCn2cc(c3ccccc32)C2=C(C(=O)NC2=O)c2cn(c3ccccc23)CCO1 , please. 0.848
